Target: BACE1 enzyme (Homo sapiens)
Construct: The HEK293-9B.A1 cell line, which overexpresses the BACE1 enzyme, was derived from HEK293 cells; endogenous in cells; washed 48,000 x g pellet of the cell homogenate
Sequence (P56817 46-501): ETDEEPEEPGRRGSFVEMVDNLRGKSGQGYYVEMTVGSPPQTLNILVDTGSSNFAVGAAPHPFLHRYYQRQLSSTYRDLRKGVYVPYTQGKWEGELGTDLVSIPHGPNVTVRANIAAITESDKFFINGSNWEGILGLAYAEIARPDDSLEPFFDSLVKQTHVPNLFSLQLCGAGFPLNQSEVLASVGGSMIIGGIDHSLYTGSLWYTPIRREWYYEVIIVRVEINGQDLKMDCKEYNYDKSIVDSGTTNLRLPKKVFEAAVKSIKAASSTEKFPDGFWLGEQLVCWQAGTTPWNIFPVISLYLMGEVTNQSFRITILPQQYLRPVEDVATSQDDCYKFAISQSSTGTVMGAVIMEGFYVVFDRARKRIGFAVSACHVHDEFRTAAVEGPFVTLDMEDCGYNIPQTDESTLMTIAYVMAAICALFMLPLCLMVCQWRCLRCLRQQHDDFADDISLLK
Assay: Radioligand displacement assay with a radiolabeled BACE inhibitor on HEK293-9B.A1 cell homogenate
Type: binding
Details: displacement of 1 nM tritiated radioligand, HEK293-9B.A1 homogenate, pH 5.0, 1.5 hr at 25° C.; read-out: Activity Rating (activity based on IC50 values)
pIC50: −log10 of the molar value. Where a name gives a salt, the structure may show the parent alone.
observable: pIC50

# example entries with known answers
INSERT INTO assay_data (molecule, subject_of_test, value_reported) VALUES
  ('CO/N=C(\C)c1cc(C(=O)N[C@@H](Cc2cc(F)cc(F)c2)[C@H](O)CNCc2cccc(OC)c2)cc(N(C)S(C)(=O)=O)c1 [Example 30, TFA salt]', 'BACE1 enzyme (Homo sapiens)', '> 7.00'),
  ('CCCO/N=C(\C)c1cc(C(=O)N[C@@H](Cc2cc(F)cc(F)c2)[C@H](O)CNCc2cccc(OC)c2)cc(N(c2ccccc2)S(C)(=O)=O)c1', 'BACE1 enzyme (Homo sapiens)', '> 7.00');

// below: pIC50 requested for another molecule
If you can, please state the reported pIC50 value of COc1cccc(CNC[C@@H](O)[C@H](Cc2cc(F)cc(F)c2)NC(=O)c2cc(/C(C)=N/OCC(C)C)cc(S(C)(=O)=O)c2)c1 [Example 20, TFA salt] .
< 6.00

Reference source: patent US7476764B2
